assay_overview: Approximate solubilities of Form A in various solvents at ambient temperature
Assay type: physicochemical
stated_conditions: dimethyl sulfoxide, organic solvent or mixture, thermodynamic from solid, approximate
observed_property: solubility (mg/mL)
# output: bare number, implied unit mg/mL

Value lookup for solubility; key = CC(=O)c1cc(C)cc(C)c1NC(=O)c1sccc1S(=O)(=O)Nc1onc(C)c1C [Form A]
144

---

assay_overview: Approximate solubilities of Form A in various solvents at ambient temperature
Format: physicochemical
stated_conditions: toluene, organic solvent or mixture, thermodynamic from solid, approximate
Description: The approximate solubilities were estimated from experiments based on the total solvent used to give a solution. The actual solubilities may be greater than those calculated because of the use of too-large solvent aliquots or a slow rate of dissolution. […] If the solid dissolved before the whole aliquot of solvent was added the solubility is listed as “greater than”.
observed_property: solubility (mg/mL)
Give the number; mg/mL is assumed, so skip it.

Given the compound CC(=O)c1cc(C)cc(C)c1NC(=O)c1sccc1S(=O)(=O)Nc1onc(C)c1C [Form A] , what is its reported solubility?
19
